Where do these numbers come from? They come from PubChem BioAssay (NCI).

- Tested on: HT29 colon
- TEST_PROTOCOL: NCI-60 one-dose screen, 48 h
- EXPERIMENTAL_PARAMETERS: 10 µM unless noted
The panel holds about 83,000 compounds, 20% with a hit somewhere; the sample as a whole holds those more often. Activity calls are given as the source filed them. Rule for the calls: active = growth percent below 10; inactive = the rest.
Please answer using one outcome listed in active, inactive

The following compounds have reported results that may help.
>>> label_class("C=C1C(=O)O[C@H]2[C@H]1CC/C(COC(=O)NCc1ccccc1OC)=C\\CC[C@@]1(C)O[C@@H]21")
"active"
>>> label_class("COc1ccc2[nH]c(=O)c(/C=N/Nc3nc(-c4ccccc4)cs3)c(O)c2c1")
"inactive"
>>> label_class("COc1ccc(/C=C2/C(=O)NC(SCC(=O)N3CCN(c4cc5c(cc4F)c(=O)c(C(=O)O)cn5C4CC4)CC3)=NC2N)cc1OC (stereo not drawn)")
"inactive"
>>> label_class("CC(=O)c1cc2c(N)c(C(=O)Nc3cccc4c3OCCO4)sc2nc1C")
"inactive"
>>> label_class("Cn1c2ccc(Br)cc2c2c3c(c4c5ccccc5[nH]c4c21)C(=O)N(O)C3=O")
"active"

Qu. // outcome(item) with item = COc1cc(/C=N\NC(=O)CN2CCN(c3cc4c(cc3F)c(=O)c(C(=O)N/N=C/c3cc(OC)c(OC)c(OC)c3)cn4C3CC3)CC2)cc(OC)c1OC
Ans. active

Qu. Per the records of this test, what outcome belongs to C=CCn1cc(-c2nc3ccccc3s2)c2cc(-c3ccc4c5c(cccc35)C(=O)N(CCN3CCNCC3)C4=O)ccc21 ?
Ans. inactive

Qu. Dear colleague, could you share the recorded outcome for C=CCn1c2ccccc2c2c3c(c4c5ccccc5n(CC=C)c4c21)C(=O)N(O)C3=O when you have a moment?
Ans. inactive

====

- System: HCT-15 colon
- TEST_PROTOCOL: NCI-60 one-dose screen, 48 h (100 = growth as untreated, 0 = no growth, -100 = all killed)
- EXPERIMENTAL_PARAMETERS: 10 µM unless noted
- Method: Growth inhibition of the HCT-15 human tumor cell line is measured as a screen for anti-cancer activity. Cells are grown in 96 well plates and exposed to the test compound for 48 hours. Compounds are tested at a single concentration, which is 10^-5 M for most compounds. The reported endpoint is percent growth (GI% or GIPRCNT), where numbers from 0 - 100% represent growth inhibition, and numbers from -100% - 0 represent cell death. For example, a value of 40 represents 60% growth inhibition. […]
About 83,000 compounds went through this panel and 20% of them were active in at least one assay; those are over-represented in the sample as a whole.
OBSERVABLE: growth (%)
Entry rule: numbers only, all in %.

Answered examples (2):
>>> val("CCN(CC)CCOc1ccc(/C(=C(/C)c2ccccc2)c2ccc(OC(C)=O)cc2)cc1")
80.2
>>> val("COc1ccc(C(=O)N2NC(=O)/C(=C/c3ccccc3F)N=C2c2ccccc2)cc1")
112

Qu. growth lookup needed for O=C1/C(=C/c2ccccc2)Oc2ccc(O)c(I)c21 , thanks.
Ans. 94.5

Qu. // returns reported growth for input O=C(Nc1ccc(NCCN2CCOCC2)nc1)c1ccc([N+](=O)[O-])cc1
Ans. 105

Qu. Given the compound COc1cc(C2NN=C3c4ccccc4CCC32)cc(OC)c1OC (stereo unspecified) , what is its reported growth?
Ans. 72.4

Qu. Could you tell me which growth is on file for CCCCCc1cc[n+](CC(=O)c2ccc([N+](=O)[O-])cc2)cc1 ?
Ans. 94.4
